Values compiled from patent US10220033B2.

I'd appreciate it if you could supply pIC50 values for the items below.
system: WHCO5 oesophageal cancer cell line; test: MTT assay for cell viability, IC50 determination; assay type: cell-based, human; settings: Homo sapiens, compound in salt form
Here pIC50 is given on a logarithmic scale as minus log10 of the concentration in mol/L.

Req: What does the data say about its pIC50? Entry: `CC(C)Cc1ccc(CNCc2cccnc2N2CCCN(C)CC2)s1`
Resp: 4.69

Req: Another compound to look at: `Cc1csc2nc(CNCc3cc4cc5c(cc4n(CCN4CCCCC4)c3=O)CCC5)cn12`
Resp: 4.77

Req: Another compound to look at: `Cc1cccc(N[C@@H](c2ccc(N(C)C)cc2)c2ccc3ccc(C)nc3c2O)n1`
Resp: 4.65

Req: Another compound to look at: `Cc1csc2nc(CNCc3cc4cc5c(cc4n(CC4CCCCC4)c3=O)CCC5)cn12`
Resp: 4.70

Req: Another compound to look at: `Cc1ccc(OC[C@@H](O)CNCc2ccc3c(c2)OCO3)cc1C`
Resp: 4.40
